Test system: IL-8
Assay: Glucocorticoid transrepression assay, IL-8 inhibition (TR)
Format: cell-based
Conditions: Homo sapiens; Table 1; NCl-H292 cells, TNFα 10 ng/ml; read-out: IL-8 inhibition (TR) Emax % inhibition
testReadout: Emax

Lab book: Emax of CC12Cc3cnn(-c4ccc(F)cc4)c3C=C1CCC1C2[C@@H](O)CC2(C)C1CC[C@]2(O)C(=O)CSc1nccc2ccccc12 (some centres unmarked) noted as > 80%

Lab book: Emax of CC12Cc3cnn(CCC#N)c3C=C1CCC1C2[C@@H](O)CC2(C)C1CC[C@]2(O)C(=O)CSc1ccccn1 (some centres unmarked) noted as < 60%

Lab book: Emax of CC12Cc3cnn(-c4ccccn4)c3C=C1CCC1C2[C@@H](O)CC2(C)C1CC[C@]2(O)C(=O)CSc1ncccn1 (some centres unmarked) noted as 60 to 70%

Lab book: Emax of CC12Cc3cnn(-c4ccccn4)c3C=C1CCC1C2[C@@H](O)CC2(C)C1CC[C@]2(O)C(=O)CSc1nc2ccccc2[nH]1 (some centres unmarked) noted as 60 to 70%

Attention now turns to another entry.
Lab book: Emax of COc1ccc2sc(SCC(=O)[C@@]3(O)CCC4C5CCC6=Cc7c(cnn7C)CC6(C)C5[C@@H](O)CC43C)nc2c1 (some centres unmarked) noted as < 60%

---

Provide the reported Emax of each item.
Test system: IL-8
Assay: Glucocorticoid transrepression assay, IL-8 inhibition (TR)
Assay type: cell-based
Settings: Homo sapiens; Table 1; NCl-H292 cells, TNFα 10 ng/ml; read-out: IL-8 inhibition (TR) Emax % inhibition

# example entries with known answers
Response field Emax (IL-8) for item CC12Cc3cn(-c4ccccc4)nc3C=C1CCC1C2[C@@H](O)CC2(C)C1CC[C@]2(O)C(=O)COc1nc2ccccc2s1 (stereo partly shown) : < 60%

Response field Emax (IL-8) for item Cc1ccnc(SCC(=O)[C@@]2(O)CCC3C4CCC5=Cc6c(cnn6-c6ccc(F)cc6)CC5(C)C4[C@@H](O)CC32C)n1 (stereo partly shown) : > 80%

Response field Emax (IL-8) for item CC(C)(C)c1ccc(-n2ncc3c2C=C2CCC4C([C@@H](O)CC5(C)C4CC[C@]5(O)C(=O)CSc4nc5cccnc5s4)C2(C)C3)cc1 (stereo partly shown) : < 60%

Response field Emax (IL-8) for item CC12Cc3cnn(-c4nc5ccccc5[nH]4)c3C=C1CCC1C2[C@@H](O)CC2(C)C1CC[C@]2(O)C(=O)CSc1nc2ccccc2s1 (stereo partly shown) : < 60%

# batch size: 8; output Emax per entry
1. CC12Cc3cnn(-c4ccc(F)cc4)c3C=C1CCC1C2[C@@H](O)CC2(C)C1CC[C@]2(O)C(=O)CSc1nc2ccc(O)cc2[nH]1 (stereo partly shown)
2. CC12Cc3cnn(-c4ccc(F)cc4)c3C=C1CCC1C2[C@@H](O)CC2(C)C1CC[C@]2(O)C(=O)CSc1cnc2ccccc2n1 (stereo partly shown)
3. Cc1ccccc1-n1ncc2c1C=C1CCC3C([C@@H](O)CC4(C)C3CC[C@]4(O)C(=O)CSc3nc4cccnc4s3)C1(C)C2 (stereo partly shown)
4. CC12Cc3cnn(-c4ccc(F)cc4)c3C=C1CCC1C2[C@@H](O)CC2(C)C1CC[C@]2(O)C(=O)CSc1ccccn1 (stereo partly shown)
5. CC(C)(C)c1ccc(-n2ncc3c2C=C2CCC4C([C@@H](O)CC5(C)C4CC[C@]5(O)C(=O)CSc4nc5ccccc5s4)C2(C)C3)cc1 (stereo partly shown)
6. CC12Cc3cnn(C4CCOCC4)c3C=C1CCC1C2[C@@H](O)CC2(C)C1CC[C@]2(O)C(=O)CSc1nc2ccccc2[nH]1 (stereo partly shown)
7. Cn1ncc2c1C=C1CCC3C([C@@H](O)CC4(C)C3CC[C@]4(O)C(=O)CSc3nc4ncccc4o3)C1(C)C2 (stereo partly shown)
8. CC12Cc3cnn(-c4ccccc4)c3C=C1CCC1C2[C@@H](O)CC2(C)C1CC[C@]2(O)C(=O)COc1ccccn1 (stereo partly shown)

Given back:
1: > 80%; 2: > 80%; 3: < 60%; 4: > 80%; 5: < 60%; 6: < 60%; 7: < 60%; 8: > 80%

# batch size: 4; output Emax per entry
1. Cn1c(SCC(=O)[C@@]2(O)CCC3C4CCC5=Cc6c(cnn6C(C)(C)C)CC5(C)C4[C@@H](O)CC32C)nc2ccccc21 (stereo partly shown)
2. CC12Cc3cnn(C4CCOCC4)c3C=C1CCC1C2[C@@H](O)CC2(C)C1CC[C@]2(O)C(=O)CSc1nc2cccnc2s1 (stereo partly shown)
3. Cc1ccnc(SCC(=O)[C@@]2(O)CCC3C4CCC5=Cc6c(cnn6C6CCCCC6)CC5(C)C4[C@@H](O)CC32C)n1 (stereo partly shown)
4. Cc1nc(SCC(=O)[C@@]2(O)CCC3C4CCC5=Cc6c(cnn6C6CCCCC6)CC5(C)C4[C@@H](O)CC32C)sc1C (stereo partly shown)

Given back:
< 60%
> 80%
> 80%
> 80%

These entries and their values trace back to patent US20120171126A1.
